FYI, the data here is from paper PMC7059817.

- TGT: Recombinant human Aβ1–42 peptide (Homo sapiens, UniProt P05067)
- Sequence (P05067 672-713): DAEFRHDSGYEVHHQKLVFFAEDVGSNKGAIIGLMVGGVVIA
- PROTOCOL DESCRIPTION: Aβ1–42 aggregation assay
MEASUREMENT LABEL: IC50

[[record]]
smiles_entry = "COc1cc(O)c2c(=O)cc(-c3ccc(O)cc3)oc2c1-c1cc(-c2cc(=O)c3c(O)cc(O)cc3o2)ccc1O"
measurement_label = "IC50"
readout_value = "8700 nM"

[[record]]
smiles_entry = "COc1ccc(-c2cc(=O)c3c(O)cc(O)c(-c4cc(-c5cc(=O)c6c(O)cc(O)cc6o5)ccc4OC)c3o2)cc1"
measurement_label = "IC50"
readout_value = "1800 nM"

[[record]]
smiles_entry = "COc1cc(O)c2c(=O)cc(-c3ccc(OC)c(-c4c(O)cc(O)c5c(=O)cc(-c6ccc(O)cc6)oc45)c3)oc2c1"
measurement_label = "IC50"
readout_value = "4920 nM"

[[record]]
smiles_entry = "O=c1cc(-c2ccc(O)c(-c3c(O)cc(O)c4c(=O)cc(-c5ccc(O)cc5)oc34)c2)oc2cc(O)cc(O)c12"
measurement_label = "IC50"
readout_value = "260 nM"

[[record]]
smiles_entry = "COc1ccc(-c2cc(=O)c3c(O)cc(O)cc3o2)cc1-c1c(O)cc(O)c2c(=O)cc(-c3ccc(O)cc3)oc12"
measurement_label = "IC50"
readout_value = "1530 nM"

[[record]]
smiles_entry = "COc1cc(O)c2c(=O)cc(-c3ccc(O)c(-c4c(O)cc(O)c5c(=O)cc(-c6ccc(O)cc6)oc45)c3)oc2c1"
measurement_label = "IC50"
readout_value = "290 nM"

